Target: Ba/F3_EGFR V769_D770insASV (Homo sapiens, UniProt P00533, DUP767-769, cells depend on it)
Sequence (P00533 with tags, fused parts or gaps DUP767-769): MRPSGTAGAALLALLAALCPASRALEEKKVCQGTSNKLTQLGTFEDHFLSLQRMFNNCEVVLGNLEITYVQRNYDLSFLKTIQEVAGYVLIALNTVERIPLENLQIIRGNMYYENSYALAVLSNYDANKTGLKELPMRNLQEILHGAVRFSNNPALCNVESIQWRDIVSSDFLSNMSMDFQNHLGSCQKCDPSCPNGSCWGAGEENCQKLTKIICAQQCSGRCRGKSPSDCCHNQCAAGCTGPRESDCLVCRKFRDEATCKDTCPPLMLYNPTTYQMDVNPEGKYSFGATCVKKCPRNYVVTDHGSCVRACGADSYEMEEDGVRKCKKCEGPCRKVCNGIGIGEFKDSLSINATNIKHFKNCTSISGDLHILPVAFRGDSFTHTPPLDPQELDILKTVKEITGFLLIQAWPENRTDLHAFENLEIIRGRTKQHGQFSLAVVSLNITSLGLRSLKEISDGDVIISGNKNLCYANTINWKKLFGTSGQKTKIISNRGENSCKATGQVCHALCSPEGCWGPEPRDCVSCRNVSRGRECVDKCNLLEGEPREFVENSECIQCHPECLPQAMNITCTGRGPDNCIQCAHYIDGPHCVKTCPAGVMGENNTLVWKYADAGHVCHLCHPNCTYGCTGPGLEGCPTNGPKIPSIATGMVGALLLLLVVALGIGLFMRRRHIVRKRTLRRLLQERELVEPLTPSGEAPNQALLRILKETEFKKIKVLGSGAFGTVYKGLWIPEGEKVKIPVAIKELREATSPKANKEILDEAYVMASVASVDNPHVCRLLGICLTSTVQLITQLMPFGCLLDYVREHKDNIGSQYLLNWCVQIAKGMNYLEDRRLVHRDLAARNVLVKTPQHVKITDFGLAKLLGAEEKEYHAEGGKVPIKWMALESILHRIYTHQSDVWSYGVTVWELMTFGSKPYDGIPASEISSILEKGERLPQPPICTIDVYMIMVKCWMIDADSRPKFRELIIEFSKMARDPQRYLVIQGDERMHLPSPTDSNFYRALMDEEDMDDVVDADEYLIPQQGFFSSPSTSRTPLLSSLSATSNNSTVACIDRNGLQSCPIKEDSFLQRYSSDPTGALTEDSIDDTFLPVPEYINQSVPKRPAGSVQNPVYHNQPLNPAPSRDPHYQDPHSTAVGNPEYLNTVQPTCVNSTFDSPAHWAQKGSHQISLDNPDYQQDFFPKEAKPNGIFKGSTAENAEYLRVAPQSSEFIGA
Test Name: Cell proliferation assay (MTT)
Format: cell-based
Measurement Parameters: three days, read-out: Ba/F3_EGFR V769_D770insASV IC50
Reported Property: GI50 (nM)

Solved cases below.
Molecule	Reported Property	Assay Result
C=CC(=O)Nc1cc(Nc2nccc(-n3c(=O)n4c5c(cc(F)cc53)CCC4)n2)c(OC)cc1N(C)CCN1CCC1 [Compound 25]	GI50	23.4
[2H]C([2H])([2H])Oc1cc(N(C)CCN(C)C)c(NC(=O)C=C)cc1Nc1nccc(-n2c(=O)n3c4c(cc(F)cc42)CCC3)n1 [Compound 42]	GI50	13.9
C=CC(=O)Nc1cc(Nc2nccc(-n3c(=O)n4c5c(cc(F)cc53)CCC4)n2)c(OC)nc1N(C)CCN(C)C [Compound 3]	GI50	13.9
[2H]C([2H])([2H])Oc1cc(N(C)CCN(C)C([2H])([2H])[2H])c(NC(=O)C=C)cc1Nc1nccc(-n2c(=O)n3c4c(cc(F)cc42)CCC3)n1 [Compound 43]	GI50	16.6
C=CC(=O)Nc1cc(Nc2nccc(-n3c(=O)n4c5c(cccc53)CCC4)n2)c(OC)nc1N(C)CCN(C)C [Compound 4]	GI50	15.7
C=CC(=O)Nc1cc(Nc2nccc(-n3c(=O)n4c5c(cccc53)CCC4)n2)c(OC)cc1N(C)CCN(C)C [Compound 2]	GI50	23.8
[2H]C([2H])([2H])N(C)CCN(C)c1cc(OC)c(Nc2nccc(-n3c(=O)n4c5c(cc(F)cc53)CCC4)n2)cc1NC(=O)C=C [Compound 28]	GI50	14.3
C=CC(=O)Nc1cc(Nc2nccc(-n3c(=O)n4c5c(cc(F)cc53)CCC4)n2)c(OCC(F)(F)F)nc1N(C)CCN(C)C [Compound 5]	GI50	14.9
C=CC(=O)Nc1cc(Nc2nccc(-n3c(=O)n4c5c(cc(F)cc53)CCC4)n2)c(OC)cc1N(C)CCN(C)C [Compound 1]	GI50	20.2

A. C=CC(=O)Nc1cc(Nc2nccc(-n3c(=O)n4c5c(cccc53)CCC4)n2)c(OCC(F)(F)F)nc1N(C)CCN(C)C [Compound 6]
B. [2H]C([2H])([2H])N(CCN(C)c1cc(OC)c(Nc2nccc(-n3c(=O)n4c5c(cc(F)cc53)CCC4)n2)cc1NC(=O)C=C)C([2H])([2H])[2H] [Compound 29]
Compare GI50: is it lower for A or for B ? Please identify the chosen entry by its label.
A

Origin of values: patent US11993598B2
